Where do these numbers come from? They come from ChEMBL document CHEMBL3885881.

- Species on record: Rattus norvegicus
- test.method.notes: DrugMatrix - Regimen: Daily Repeat
- Assay type: toxicity, organism-based, Sprague-Dawley
- Design: regimen Daily Repeat, gender Male, age 6-8 weeks
- assay.setup: in vivo, po, 0 mg/kg, 72 h, tissue Blood, route oral GAVAGE, dose level Control, time 3 day, […]
Could you please report measured ABSOLUTE SEGMENTED NEUTROPHIL for the items listed next?
Answers are plain numbers, in CELLS/uL.

Reference set (3 entries):
- compound: "COc1cc(N)c(Cl)cc1C(=O)NC1CCN(CCCOc2ccc(F)cc2)CC1OC (centres undefined) [CISAPRIDE]"
  ABSOLUTE SEGMENTED NEUTROPHIL (CELLS/uL): 516.83
- compound: "CC(C)(C)NC(=O)[C@H]1CC[C@H]2[C@@H]3CC[C@H]4NC(=O)C=C[C@]4(C)[C@H]3CC[C@]12C [FINASTERIDE]"
  ABSOLUTE SEGMENTED NEUTROPHIL (CELLS/uL): 1020
- compound: "CO[C@H]1/C=C/O[C@@]2(C)Oc3c(C)c(O)c4c(O)c(c(/C=N/N5CCN(C6CCCC6)CC5)c(O)c4c3C2=O)NC(=O)/C(C)=C\\C=C\\[C@H](C)[C@H](O)[C@@H](C)[C@@H](O)[C@@H](C)[C@H](OC(C)=O)[C@@H]1C [RIFAPENTINE]"
  ABSOLUTE SEGMENTED NEUTROPHIL (CELLS/uL): 1051.33

Would you kindly look at the next entry?
Request: Data request, read-out ABSOLUTE SEGMENTED NEUTROPHIL, for Clc1ccc(COC(Cn2ccnc2)c2ccc(Cl)cc2Cl)cc1 (centres undefined) [ECONAZOLE]
Result: 744.67

----------
Could you please report measured LYMPHOCYTE for the items listed next?
- Organism: Rattus norvegicus
- test.method.notes: DrugMatrix - Regimen: Daily Repeat
- Type: toxicity, organism-based, Sprague-Dawley
- Parameters: regimen Daily Repeat, gender Male, age 6-8 weeks
- assay.setup: in vivo, po, 0 mg/kg, 72 h, tissue Blood, route oral GAVAGE, dose level Control, time 3 day, vehicle .5 % CMC
Answers are plain numbers, in %.

- compound: "COc1cc2nc(N3CCN(C(=O)c4ccco4)CC3)nc(N)c2cc1OC"
  LYMPHOCYTE, %: 90.17

For each of the compounds below, note its LYMPHOCYTE.
1. C[C@H]1O[C@@H](n2cc(F)c(=O)[nH]c2=O)[C@H](O)[C@@H]1O
2. COc1ccc(C2C(=O)c3ccccc3C2=O)cc1
3. NC1CCN(c2nc3c(cc2F)c(=O)c(C(=O)O)cn3-c2ccc(F)cc2F)C1 (centres undefined)
4. CC(=O)Oc1ccc(C(c2ccc(OC(C)=O)cc2)c2ccccn2)cc1
5. CC(C(=O)O)c1ccc2oc(-c3ccc(Cl)cc3)nc2c1 (centres undefined)
6. Clc1ccccc1CN1CCc2sccc2C1
7. CN/C(=N/CCSCc1nc[nH]c1C)NC#N
8. O=C1CN=C(c2ccccc2Cl)c2cc([N+](=O)[O-])ccc2N1

Result:
89.83
84.8
81.4
83.33
76.98
84.8
89.83
89.83

----------
- Species on record: Rattus norvegicus
- test.method.notes: DrugMatrix - Regimen: Daily Repeat
- Assay type: toxicity, organism-based, Sprague-Dawley
- Set-up: regimen Daily Repeat, gender Male, age 6-8 weeks
- assay.setup: in vivo, po, 0 mg/kg, 120 h, tissue Blood, route oral GAVAGE, dose level Control, time 5 day, […]
measured.attribute: HEMOGLOBIN (G/DL)
One number for each entry, in G/DL.

Reference set (2 entries):
- molecule: "COc1cc(N)c(Cl)cc1C(=O)NC1CCN(CCCOc2ccc(F)cc2)CC1OC (centres undefined) [CISAPRIDE]"
  HEMOGLOBIN (G/DL): 13.38
- molecule: "CO[C@H]1/C=C/O[C@@]2(C)Oc3c(C)c(O)c4c(O)c(c(/C=N/N5CCN(C6CCCC6)CC5)c(O)c4c3C2=O)NC(=O)/C(C)=C\\C=C\\[C@H](C)[C@H](O)[C@@H](C)[C@@H](O)[C@@H](C)[C@H](OC(C)=O)[C@@H]1C"
  HEMOGLOBIN (G/DL): 13.55

For each of the molecules below, note its HEMOGLOBIN.
1. Clc1ccc(COC(Cn2ccnc2)c2ccc(Cl)cc2Cl)cc1 (centres undefined)
2. CC(C)(C)NC(=O)[C@H]1CC[C@H]2[C@@H]3CC[C@H]4NC(=O)C=C[C@]4(C)[C@H]3CC[C@]12C [FINASTERIDE]

Result:
[13.17, 12.93]
